experimental-readout: melting point

These recorded examples may help you get a feel for the data.
Which melting point value belongs to Cc1cccc(CCC(=O)c2ccccc2)c1NC(=O)CC1c2ccccc2Oc2ccccc21 ?
175 to 176 °C

Ok, now COc1ccc(Cc2cc3cc(C#N)ccc3o2)cc1
78 to 80 °C

Same read-out for CCN1C(=O)CCCc2c1ccc(Nc1ncc(Cl)c(Nc3ccccc3-n3cccn3)n1)c2OC ?
183 to 185 °C

Similarly, CNc1ccsc1C(=O)OC ?
54 to 57 °C

Quick one: COC(=O)N1CCC(c2ccc(N3C[C@H](CNC(C)=O)OC3=O)cc2F)CC1
165 to 166 °C

Continuing:
If you can, please state the reported melting point value of ON=Cc1ccc2c(c1)ncn2-c1cccc(-c2ccncn2)c1 .
220 to 221 °C

Queued: COC(CN1CCN(c2ccccc2)CC1)c1ccc(C)nc1 (centres undefined)
93 °C

Next compound: CCn1ncnc1COc1nn2c(-c3ccccc3F)nncc2c1C(C)(C)C
105 °C

What do you get for CCCCOc1cc(/C=C(\OCC)C(=O)O)ccc1OCCc1ccc(OCC)c(Cl)c1 ?
109 °C

How about this compound: O=C1CCC(NC(=O)OCc2ccccc2)(C(=O)OCc2ccc([N+](=O)[O-])cc2)O1 (centres undefined)
127 to 128 °C

Try this compound next: CC(Cc1cccc(O)c1)NCCC(c1ccccc1)c1ccccc1 (centres undefined)
122 to 124 °C

Now try C[C@H](O)[C@H](Cc1ccccc1)C(=O)NN .
167 °C

Would you kindly repeat that for Brc1nc2cncnc2n1Cc1ccccc1 ?
119 to 121 °C

# iterate: Oc1ccc(Oc2ncc(C(F)(F)F)cc2F)cc1
97 °C

###

experimental-readout: melting point

For the compound CC1(C)Oc2ccsc2C(N2CCCC2)C1O (centres undefined) , what melting point is on record?
85 to 89 °C

Again, but for Cc1cc(C#N)cc(C)c1Oc1nc(Nc2ccc(C#N)cc2)nc(N)c1Br
271 °C

Same thing, different compound: CCCc1c(OCCCCCNC(=O)NCCCCc2cccnc2)ccc(C(C)=O)c1O
73 to 76 °C

---
What value of melting point has been reported for the following compound? SC1=NCCN1Cc1ccccc1
177 to 182 °C

Same read-out for CCc1cc2c(c3c1[nH]c1ccc(O)cc13)C(=O)N(CCN(CC)CC)C2=O ?
188 to 189 °C

Further, for C=C1SC(=O)N(c2ccc3cc(-c4ccc(OC)c(-c5ccccc5)c4)ccc3c2)C1=O ?
221 to 224 °C

Can you check O=C1C2CCCC2=Nc2ccc(Cl)cc2N1Cc1ccccc1 (centres undefined) next?
134 to 136 °C

What do you have for CCCCCCCCCCCCCCCC(=O)NC(C)CO (centres undefined) ?
75 to 76 °C

What do you get for O=C(Cl)N1CCC(Oc2cccc3c2CCC3)C1 (centres undefined) ?
128 to 129 °C

Then O=C(CCc1cnoc1-c1ccccc1)Nc1ccc2ccccc2n1 ?
112 to 113 °C

Item: Cn1cc(C(N)=O)c(=O)c2ccc(Cl)cc21
> 240 °C

// query: Cc1c(C(=O)Nc2ccc(N3CCN(C4CCOCC4)CC3)c(C#N)c2)cnn1-c1ccc(F)c(F)c1
235 °C

Again, but for Cc1nc(S)nn1-c1ccc([N+](=O)[O-])cc1
202 °C

Try CCc1sc(NC(=O)C2=C(O)c3ccc4ccccc4c3S(=O)(=O)N2C)nc1C next.
253 to 255 °C

###

Below is a list of entries, each paired with its recorded melting point value.

Field: example entries. Status: answers known.
Which melting point is listed for CCCCc1nc(Cl)c(CC(=O)OCC)c(Cc2ccc(-c3ccccc3-c3nnn[nH]3)cc2)n1 ?
160 °C

Now the same for N#Cc1ccc(Oc2cccc(N)c2)cc1C#N
171 to 172 °C

Another compound: COC(=O)c1cccc2c1-c1ccc3c(c1C(c1ccccc1)O2)C(C)=CC(C)(C)N3 (stereo unspecified)
150 to 152 °C

Cool, now C=Cn1cc(C(=O)OCC)c(=O)c2cc(F)c(N3CCN(C)CC3)cc21
186 to 188 °C

Input Cc1n[nH]c2c1C(=O)CC(c1ccccc1O)C2 (stereo unspecified)
252 to 255 °C

Next:
Which melting point is reported for this compound? CC(=O)c1cc2c(s1)C(=O)c1c(C(C)=O)csc1C2=O
207 to 208 °C

Nc1ccc(Nc2ccccc2[N+](=O)[O-])cc1 , same question.
110 to 112 °C

Proceed to CCCc1cc(C=O)c(O)cc1O
92.8 to 93.6 °C

Also O=C(O)c1c2c(nc3ccc(F)cc13)-c1ccc(-c3cccs3)cc1CCC2 , if possible.
> 300 °C

Next compound: COc1ccc(-c2ncc3n2CNc2ccccc2-3)cc1
190 to 191 °C

Same again, this time with O=C(O)CCCc1nc(-c2cccnc2)c(-c2ccccc2)s1
141 to 142 °C

###

experimental-readout: melting point

Some solved entries appear below for comparison.
What does the record list as melting point for COc1ccc(CCN2C=CC=C3C2=Nc2ccccc2OS3(=O)=O)cc1O ?
158 to 160 °C

How about Nc1ccc(S(N)(=O)=O)c2c1CCCC2 ?
216 to 219 °C

Okay, now this compound:
Would you mind telling me what melting point value was observed for O=c1c(NCCCO)c(Cl)cnn1COCc1ccccc1 ?
54 to 56 °C

###

Below: a set of entries, each annotated with reported melting point.
# number only, unit °C dropped from output

Any idea what its melting point is? The molecule is CN1C(=O)C(C)(C)N=C(c2ccccc2F)c2c1cc(Br)c(N)c2Br
202

Turning to the following molecule.
Which melting point value belongs to Cc1cccc(C(=O)O)c1N(C)S(=O)(=O)c1ccc(OCCCNC(=O)c2ccc3c(c2)OCO3)cc1 ?
120

###

experimental-readout: melting point

Which melting point is reported for this compound? Cc1ccc(-c2cn(C)cc(-c3ccc(C)cc3)c2=O)cc1
212 to 214 °C

# repeat for Cc1cccc(C(CNc2ncnc3c2ncn3C2OC(CO)C(O)C2O)c2ccccc2)c1 (centres undefined)
92 to 105 °C

Now this one: O=C(O)Cc1ccc(NC(=O)C(COc2cccc(Cl)c2)NS(=O)(=O)c2ccc(Cl)cc2)cc1 (racemic)
220 to 221 °C

Cool, now O=C(Oc1ccccc1)Sc1nc2ccccc2n1C1CCN(C(=O)Oc2ccccc2)CC1
200 to 203 °C

Cool, now CCCCCCCCOc1cc(-c2cccc(C(F)(F)F)c2)c(OCC(=O)O)c(-c2cccc(C(F)(F)F)c2)c1
75 to 77 °C

For COC(=O)C(=Cc1cc(OC)cc(OC)c1)c1ccc(Oc2ccc(C=O)cc2)cc1 then?
108 to 110 °C

Entry N#CC1=C(N)N(c2ccccc2)CC1=O please
285 to 290 °C

Try the compound CCOC(=O)COc1ccc(C(=O)Nc2ccccc2Sc2cccc(O)c2-c2nnn[nH]2)cc1
155 to 157 °C

###

experimental-readout: melting point (°C)

I'd like to know its melting point. The molecule in question is CN(C)C(CN1CCN(c2ccc(F)cc2)CC1)CN1c2cccc3cccc(c23)S1(=O)=O (configuration not stated)
118

I = CCOC(=O)C1=C(N)N=C(SCC)C(C(=O)OCC)C1c1ccncc1 (configuration not stated)
II = Cc1cc(-c2ccc(C(F)(F)F)nc2)nc(-c2cccc(-c3cccc(S(N)(=O)=O)c3)n2)n1
Given I and II , report the one with the higher recorded melting point. I would appreciate it if you answered with the label of your choice.
II
(II: 254 °C, I: 156 °C)

###

Catalogue of molecules with associated melting point

// worked examples, melting point included
Which melting point is reported for this molecule? Cc1cc(OCc2sc(-c3ccc(C(F)(F)F)cc3)nc2C)ccc1Cc1nn[nH]n1
165 °C

Then this molecule: C=CCC1(C(=O)N2CCCCC2)c2ccccc2-c2ccccc21
64 to 66 °C

Could you do the same for C#CCCOc1cc(/C=C/C(=O)Nc2ccccc2C(=O)O)ccc1OC , please?
197 to 198 °C

c1ccc(-c2cccc3[nH]c4c(c23)CCNCC4)cc1 , same question.
> 250 °C

Next record, please: Cc1nccn1C(=O)NC1CCCCC1
100 to 102 °C

Now give it for O=C(c1ccc2nonc2c1)N1CC2CCC1C2 (centres undefined) too.
92 to 93 °C

Further cases:
Consider the molecule CCOC(=O)Oc1ccc(/C(=C(/CC)c2ccccc2)c2ccc(/C=C/C(=O)O)cc2)cc1 and give its measured melting point.
135 to 136 °C

Now consider CCOC(=O)CCc1c(O)ccc2ccc(OCC(=O)OCC)cc12 .
112 to 113 °C

Next molecule: CNS(=O)(=O)CCc1ccc2[nH]ccc2c1
122 to 124 °C

Please do the same for CC1(C)C=C(N2CCCC2=O)c2cc([N+](=O)[O-])ccc2O1 as well.
135 to 137 °C

Same question for CC(=O)c1nc(C)cn1-c1cc(C)c2[nH]c(=O)ccc2c1 please.
312 to 314 °C

Try this molecule too: COc1ccc2c(c1)C(=O)OC21CCN(C)CC1
123 to 125 °C

Another molecule to check: CC(C)(C)OC(=O)[C@@H](N)Cc1ccc(O)c(I)c1
158 to 159 °C

Item: c1ccc(CCNc2cc(-n3cccn3)nc(-c3ccco3)n2)nc1
110 to 111 °C

Please answer likewise for Clc1ccc(-c2ccc(CBr)cc2)cc1
64 to 66 °C

// same read-out, input: NCCCC1(C(N)=O)c2ccccc2-c2ccccc21
198 to 200 °C

What do we get for O=C1c2ccccc2C(=O)N1CCCCc1nc[nH]n1 ?
169 to 171 °C

For CCOC(=O)c1oc(Oc2ccccc2)nc1C(F)(F)F then?
75 to 77 °C
